Test: chemical genetic growth profiling, strain panel (AID 1159580);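 further: tested at 20 µM; growth read once vehicle control cultures reached saturation at 30 °C; 1 = growth at the plate median or of vehicle wells; lower values mean less growth of the strain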
Details: S. cerevisiae deletion strains, growth OD, locus YJR066W, strain TOR1 (second series), stronger effect = lower value
Among all 5,500 compounds or so, about 2,000 (36%) were called active. About 18% were inconclusive and are not listed. This is one part of the list.
Listing of recorded normalized growth by entry.

# Molecule, normalized growth
data = [
    ("Brc1ccc2[nH]c3c(c2c1)CCC3", 0.67),
    ("COc1ccc2nc3ccccc3c(N)c2c1", 0.246),
    ("O=C(CSCc1csc2ccccc12)Nc1ccc(F)c(Cl)c1", 0.893),
    ("O=C(NCCNc1ncc(Cl)cc1C(F)(F)F)C(F)(F)Sc1ccccc1", 1.01),
    ("Cc1ccc(C)c(CSc2nc(C3CCCCC3)c(C#N)c(=O)[nH]2)c1", 0.99),
    ("Cc1nc(-c2ccccn2)nc(N(C)Cc2ccccc2)c1Cl", 0.958),
    ("O=C(N/N=C\\c1cc(Br)ccc1O)c1ccccc1Oc1ccccc1", 0.901),
    ("Cc1nc(-c2cccnc2)nc(NCc2ccccc2)c1Cl", 0.884),
    ("Cc1nc(-c2ccccn2)[nH]c(=O)c1Cc1c(Cl)cccc1Cl", 0.769),
    ("O=C(NCCNc1ncc(C(F)(F)F)cc1Cl)C(F)(F)Sc1ccccc1", 0.899),
    ("O=C(NCC(c1ccccc1)c1c[nH]c2ccccc12)c1ccc(C(F)(F)F)cc1 (centres undefined)", 0.97),
    ("O=C(c1ccc(Cl)cc1)N(Cc1ccccc1)Cc1cccnc1", 0.853),
    ("O=C(Nc1ccc(Cl)cc1)SCc1c(Cl)cccc1Cl", 0.746),
    ("S=C(NNC(=S)NC1CC2C=CC1C2)Nc1ccc(Br)c(Cl)c1 (centres undefined)", 0.972),
    ("O=[N+]([O-])c1cnc(Sc2nnc(SCc3cccc(C(F)(F)F)c3)s2)s1", 0.0917),
    ("OC1CCN(c2cc(C(F)(F)F)nc3cc(Cl)cc(Cl)c23)CC1", 0.963),
    ("O=C(NCC1COc2ccccc2O1)c1ccc(Cl)cc1 (centres undefined)", 0.561),
    ("Cc1oc(C(C)(C)C)cc1-c1cc(N)n(-c2ccc(I)cc2)n1", 0.936),
    ("N#Cc1c2ccccc2nc2ccccc12", 0.728),
    ("S=C(Nc1ccc(Cl)cc1)SCc1c(Cl)cccc1Cl", 0.932),
    ("C=CCc1c(CCC)nc(-c2ccccn2)[nH]c1=O", 0.767),
    ("O=C(Nc1ccccc1Sc1ccc([N+](=O)[O-])cc1[N+](=O)[O-])C(Cl)(Cl)Cl", 0.967),
    ("CCCc1nc(-c2ccccn2)[nH]c(=O)c1CC1CC1", 0.849),
    ("CC(C)Cc1ccc(C(C)C(=O)Nc2nn(C)c3ccccc23)cc1 (centres undefined)", 0.902),
]
